- Assayed system: calmodulin (Homo sapiens, UniProt P0DP23)
- Test method notes: Populations of J, α, ω motional classes of calmodulin methyl O^2axis distributions in the complexes
- Condition description: percentage of counts in class (number of observations), O^2axis up to 0.5
Outcome measure: % J (%)

[
  {
    "Substance": "AKSKWKQAFNATAVVRHMRKLQ (listed as Homo sapiens) [CaMKI(p)]",
    "Units label": "%",
    "% J": 38
  },
  {
    "Substance": "(COOH-FPNGFSRKRLMSKVLIVTTWSPLL [CaMKKα(p)]",
    "Units label": "%",
    "% J": 35
  },
  {
    "Substance": "QTEKMWQRLKGILRSLVKQ [PDE(p)]",
    "Units label": "%",
    "% J": 46
  },
  {
    "Substance": "KRRAIGFKKLAEAVKFSAKLMGQ [nNOS(p)]",
    "Units label": "%",
    "% J": 45
  },
  {
    "Substance": "RKKTFKEVANAVKISASLMG [eNOS(p)]",
    "Units label": "%",
    "% J": 38
  }
]

Attribution: patent US8652790B2
